target: gastric H,K-ATPase (Sus scrofa); construct: We prepared H,K-ATPase (EC 7.2.2.19)-enriched membrane vesicles according to Sachs et al; from tissue; host or cells: gastric membrane vesicles; test: H,K-ATPase activity (Pi release from ATP) inhibition, steady-state kinetic analysis; type: biochemical, hog; conditions: pH 6.2; 10 mM KCl; read-out: K0.5 for inhibition of ATPase activity
observationType: pIC50
Please report pIC50 as the negative decimal logarithm of the molar concentration, giving only the number.

Consider Cc1nc2c(O[C@H]3CCOc4cc(F)cc(F)c43)cc(C(=O)N(C)C)cc2[nH]1 . Its measured pIC50 is 6.05

====

target: gastric H,K-ATPase (Sus scrofa); construct: We prepared H,K-ATPase (EC 7.2.2.19)-enriched membrane vesicles according to Sachs et al; from tissue; host or cells: gastric membrane vesicles; experiment: H,K-ATPase activity (Pi release from ATP) inhibition, steady-state kinetic analysis; format: biochemical, hog; conditions: pH 7.2; fit of model III (binding to E2P and E1ATP); [K+] 0-75 mM; 37 °C; read-out: apparent Kd / apparent affinity constant, high-affinity binding (Ki) to E2P, model III
observationType: Kd (nM)
Give just the numeric value; nM need not be written.

The compound identified as Cc1nc2c(O[C@H]3CCOc4cc(F)cc(F)c43)cc(C(=O)N(C)C)cc2[nH]1 registered its Kd at 560

====

target: gastric H,K-ATPase (Sus scrofa, UniProt P19156)
Sequence (P19156 2-1034 limits assumed): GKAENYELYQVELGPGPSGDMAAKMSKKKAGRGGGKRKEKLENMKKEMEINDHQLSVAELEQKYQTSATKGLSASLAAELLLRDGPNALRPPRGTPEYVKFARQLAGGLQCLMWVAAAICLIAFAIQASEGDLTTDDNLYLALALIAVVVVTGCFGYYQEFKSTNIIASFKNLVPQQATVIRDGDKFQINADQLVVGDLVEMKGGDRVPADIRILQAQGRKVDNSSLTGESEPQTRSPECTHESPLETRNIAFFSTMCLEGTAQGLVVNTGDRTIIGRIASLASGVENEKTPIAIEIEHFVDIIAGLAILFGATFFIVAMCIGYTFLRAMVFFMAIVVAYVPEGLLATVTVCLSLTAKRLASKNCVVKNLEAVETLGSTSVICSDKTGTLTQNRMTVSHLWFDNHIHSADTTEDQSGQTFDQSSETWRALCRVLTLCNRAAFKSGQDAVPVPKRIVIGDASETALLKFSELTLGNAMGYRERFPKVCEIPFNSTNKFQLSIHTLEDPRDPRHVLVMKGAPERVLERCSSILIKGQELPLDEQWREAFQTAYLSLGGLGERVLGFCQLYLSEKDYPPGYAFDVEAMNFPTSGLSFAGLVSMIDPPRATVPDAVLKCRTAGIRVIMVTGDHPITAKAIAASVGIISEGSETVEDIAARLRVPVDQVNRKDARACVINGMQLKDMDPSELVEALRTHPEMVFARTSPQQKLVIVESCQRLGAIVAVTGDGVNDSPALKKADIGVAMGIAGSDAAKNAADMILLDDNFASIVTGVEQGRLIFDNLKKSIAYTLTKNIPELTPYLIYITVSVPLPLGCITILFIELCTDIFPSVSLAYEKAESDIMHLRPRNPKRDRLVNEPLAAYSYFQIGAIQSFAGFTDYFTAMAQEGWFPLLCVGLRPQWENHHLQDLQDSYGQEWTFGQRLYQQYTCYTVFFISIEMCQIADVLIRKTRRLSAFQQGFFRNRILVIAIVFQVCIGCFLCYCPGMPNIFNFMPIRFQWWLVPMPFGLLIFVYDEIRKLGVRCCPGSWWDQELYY
Sequence (P18434 whole entry partner): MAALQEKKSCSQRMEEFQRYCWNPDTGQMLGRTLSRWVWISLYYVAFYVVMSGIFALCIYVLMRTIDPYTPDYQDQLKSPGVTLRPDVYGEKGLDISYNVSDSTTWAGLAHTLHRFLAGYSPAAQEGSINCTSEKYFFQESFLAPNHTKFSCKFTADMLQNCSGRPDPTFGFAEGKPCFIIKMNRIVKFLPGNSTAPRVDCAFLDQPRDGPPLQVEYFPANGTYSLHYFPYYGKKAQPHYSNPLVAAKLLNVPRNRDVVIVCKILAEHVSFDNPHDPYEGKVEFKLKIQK
observationType: Ki (nM)
Form entry: value (nM) — number only.

Reported gastric H,K-ATPase (Sus scrofa, UniProt P19156) Ki for item Cc1nc2c(O[C@H]3CCOc4cc(F)cc(F)c43)cc(C(=O)N(C)C)cc2[nH]1 [tegoprazan] was 410
